Assayed target: Melanocortin receptor 4 (Homo sapiens, UniProt P32245)
Sequence (P32245 whole entry): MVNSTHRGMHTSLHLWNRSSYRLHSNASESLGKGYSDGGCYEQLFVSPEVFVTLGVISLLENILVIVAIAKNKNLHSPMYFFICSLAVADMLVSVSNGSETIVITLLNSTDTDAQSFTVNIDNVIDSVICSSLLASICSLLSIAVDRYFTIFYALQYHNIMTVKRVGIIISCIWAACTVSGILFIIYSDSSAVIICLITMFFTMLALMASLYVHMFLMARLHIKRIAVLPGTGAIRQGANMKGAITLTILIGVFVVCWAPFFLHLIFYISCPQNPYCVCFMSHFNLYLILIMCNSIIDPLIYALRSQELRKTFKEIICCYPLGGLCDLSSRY
Protocol: Displacement of [125I]NDPMSH from human MC4 receptor expressed in HEK293 cells after 2 hrs by liquid scintillation counting
Assay type: cell-based
Quantity kind: pKi
Answers are plain numbers, as −log10 of the molar value.

Worked cases, pKi given:
Compound | pKi
O=C(NCc1ccccc1)[C@@H]1CNC[C@H]1C(=O)NCc1ccccc1 | 6.05
O=C(NCCc1ccc(Cl)cc1Cl)[C@H]1CN(CC2CC2)C[C@H]1C(=O)NC1CCN(Cc2ccccc2)C1 (mixture of isomers) | 6.80
O=C(NCCc1ccccc1)[C@H]1CNC[C@H]1C(=O)NC1CCN(Cc2ccccc2)C1 (stereo in doubt; 3a) | 5.30

Which pKi is reported for this compound? O=C(NCCc1ccccc1)[C@H]1CN(CCOc2ccccc2)C[C@H]1C(=O)NC1CCN(Cc2ccccc2)C1 (mixture of isomers)
6.00

----------
Assayed target: Melanocortin receptor 4 (Homo sapiens, UniProt P32245)
Protocol: Displacement of [125I]NDPMSH from human MC4 receptor expressed in HEK293 cells after 2 hrs by liquid scintillation counting
Format: cell-based
Study conditions: hek293
Quantity kind: Ki (µM)
Numbers only, in µM.

What does the record list as Ki for O=C(NCCc1ccccc1)[C@H]1CNC[C@H]1C(=O)NC1CCN(Cc2ccccc2)C1 (mixture of isomers) ?
5

----------
Assayed target: Melanocortin receptor 4 (Homo sapiens, UniProt P32245)
Protocol: Displacement of [125I]NDPMSH from human MC4 receptor expressed in HEK293 cells after 2 hrs by liquid scintillation counting
Assay type: cell-based
Give measured pKi for each item. Keep answers brief.
Numbers only, as −log10 of the molar value.

Worked examples follow.
Molecule | pKi
O=C(NCc1ccccc1)[C@H]1CNC[C@H]1C(=O)NCCc1c[nH]c2ccccc12 | 5.26
O=C(NCc1cccc(Cl)c1)[C@H]1CN(CC2CC2)C[C@H]1C(=O)NC1CCN(Cc2ccccc2)C1 (mixture of isomers) | 6.40

I have 3 molecules here; please give me pKi for each one.
1. O=C(NCCc1cccc(Cl)c1)[C@H]1CN(CC2CC2)C[C@H]1C(=O)NC1CCN(Cc2ccccc2)C1 (mixture of isomers)
2. O=C(NCc1ccc(Cl)cc1Cl)[C@H]1CN(CC2CC2)C[C@H]1C(=O)NC1CCN(Cc2ccccc2)C1 (mixture of isomers)
3. O=C(CNC(=O)[C@H]1CNC[C@H]1C(=O)NCCc1c[nH]c2ccccc12)c1ccccc1

[6.17, 7.15, 5.26]
